meta.source: PubChem BioAssay AID624246

target: Transcriptional regulator ERG (Homo sapiens) (UniProt P11308); assay: qHTS for Small Molecule Inhibitors of the ERG Ets/DNA interaction; conditions: fluorescence polarization, His-ERG Ets domain / labelled DNA; series mostly up to 76.9 µM
Sequence (P11308 whole entry, looked up, the tested form may be a part): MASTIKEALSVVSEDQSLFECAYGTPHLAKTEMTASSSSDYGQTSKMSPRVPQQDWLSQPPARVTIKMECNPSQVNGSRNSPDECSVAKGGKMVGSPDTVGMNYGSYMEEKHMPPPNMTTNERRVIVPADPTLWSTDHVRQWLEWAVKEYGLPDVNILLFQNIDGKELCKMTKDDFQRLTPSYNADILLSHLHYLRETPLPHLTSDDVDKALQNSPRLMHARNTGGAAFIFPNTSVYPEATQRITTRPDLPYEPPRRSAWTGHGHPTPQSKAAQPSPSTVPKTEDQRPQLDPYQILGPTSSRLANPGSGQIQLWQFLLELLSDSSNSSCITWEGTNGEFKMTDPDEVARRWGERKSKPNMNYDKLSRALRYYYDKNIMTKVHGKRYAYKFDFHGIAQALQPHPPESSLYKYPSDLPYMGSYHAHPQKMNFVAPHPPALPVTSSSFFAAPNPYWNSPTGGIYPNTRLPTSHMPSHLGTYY
The whole screen tested about 370,000 compounds, of which about 100 (0.027%) were called active. Calls follow the shape of the dose curve; as a rule, active = well fitted inhibition curve with a large enough effect in the polarisation, with a control signal flat; inconclusive = small, poorly fitted or top-dose-only effect, or effect the other way, or a change in a side signal; inactive = no such curve, though single readings can be large or run the other way; the % refers to the polarisation. This excerpt belongs to a sample that is enriched for actives.
Please reply with one of these outcomes: YES = active, NO = inactive

CC(=O)Nc1ccc(NC(=O)c2cc3sccc3n2Cc2ccc(F)cc2)cc1 :: NO
Cc1cc(O)c(C(c2ccccc2)N2CCN(c3ccccc3F)CC2)c(=O)n1Cc1ccco1 (stereo not given) :: NO

Dear colleague, could you share the recorded outcome for `CCc1nn(CC(=O)Nc2cccc(C)c2C)c(=O)c2cc3sccc3n12` when you have a moment?
NO

Dear colleague, could you share the recorded outcome for `COc1ccc(CCNC(=O)c2ccc(-n3c(C)cc4c3CCCC4)cc2)cc1OC` when you have a moment?
NO

Dear colleague, could you share the recorded outcome for `Cc1cc(C(=O)Nc2cccc(C(F)(F)F)c2)c2c(C)nn(-c3cccc(F)c3)c2n1` when you have a moment?
NO

Dear colleague, could you share the recorded outcome for CCN(CC)CCCC(C)n1c2nc(=O)[nH]c(=O)c-2nc2cc(Cl)ccc21 (stereo not given) when you have a moment?
YES

Dear colleague, could you share the recorded outcome for `O=C(CSc1oc(-c2ccco2)nc1S(=O)(=O)c1ccccc1)c1ccc(Cl)cc1` when you have a moment?
NO

Dear colleague, could you share the recorded outcome for Cc1ccc(-c2nnc(Nc3ccc(OCC(N)=O)cc3)c3ccccc23)cc1S(=O)(=O)NCC1CCCO1 (stereo not given) when you have a moment?
NO

Dear colleague, could you share the recorded outcome for `CCC1=Nc2cc(C(=O)NCCCOC(C)C)ccc2Sc2ccc(C)cc21` when you have a moment?
NO

Dear colleague, could you share the recorded outcome for CCOc1ccccc1CNC(=O)c1ccc(-n2c(C)cc3c2CCC(C)C3)cc1 (stereo not given) when you have a moment?
NO
